METHOD_DESCRIPTION: Single dose in vivo pharmacokinetic study
Parameters: species or system rats
TEST_PARAMETERS: plasma; rat, single 3.0 mg/kg IV dose, mean
READOUT_NAME: half-life (h)

(I) CN(C)CCCn1c(N)nc2ccc(OCCCN(C)Cc3ccco3)cc21 [IBIS00405678]
(II) CN(C)CC1CNc2nc3ccc(OCCCN(C)Cc4ccccn4)cc3n2C1 (centres unmarked) [IBIS00528637]
Would you mind telling me which has the lower recorded half-life between I and II ? State your choice using its label.
II

###

METHOD_DESCRIPTION: Single dose in vivo pharmacokinetic study
Design: species or system rats
TEST_PARAMETERS: rat, plasma, iv, 3 mg/kg, single 3.0 mg/kg IV dose, mean, read-out: AUC Extrap
READOUT_NAME: AUC (ng·h/mL)

(a) CN(C)CCCn1c(N)nc2ccc(OCCCN(C)Cc3ccco3)cc21 [IBIS00405678]
(b) CN(C)CC1CNc2nc3ccc(OCCCN(C)Cc4ccccn4)cc3n2C1 (centres unmarked) [IBIS00528637]
In the pair a and b , the larger recorded AUC belongs to which? Answer by stating the label of the chosen item.
a
